Tested on: K4 kissing-loop RNA reporter
Assay: apparent KD of K4 kissing-loop reporter; higher = weaker reporter binding
Details: Eterna round: R107; input ligand: theophylline 20 uM

>  <recordSequence>
ACACAGAGUUGCCGAGUGAUGUUCGGCUUACGAGGACCGGUACGGCCGCCACUCGUUACUCUGUGUUUUGGACACCAAGGCGUCG [Tionzaanon]

>  <apparent KD of K4 kissing-loop reporter [nM]>
505

$$$$
>  <recordSequence>
AGACUACCACACUGUCAAUAGACAGUGGACUAGGAUAUGCUGAUAAGCAGAAGGAGUGAUGUUCCAAGGUAGUCAAUAAAAUAAU [FmnAX 13 G28+A66]

>  <apparent KD of K4 kissing-loop reporter [nM]>
396

$$$$
>  <recordSequence>
AGGUCCGAGCCCGUAAGGGCUCGGACCUGUUAGGAUAUGACGUUAUUCAGAAGGGAUGGGUGGAGUGAUGUUCCACCCGCAAGGG [#2 Same State - FMN A Attempt #10 (HarryS)]

>  <apparent KD of K4 kissing-loop reporter [nM]>
91.7

$$$$
>  <recordSequence>
UGAUAGGACAGAAGGAGCGGAAGUGAUGUUUCCAAAAGGGAAGGUCGACAAAGUCGACCCUUCCAGGUAGGUCGCUGUCCUAUCU [ArgBX 9 #Palindromic #SwitchBubble #StaticStem]

>  <apparent KD of K4 kissing-loop reporter [nM]>
86.1

$$$$
>  <recordSequence>
CGUAAGGAUUGACGACUGCAGAGCAAAAUAAAGGAUAUCGCAGCGUCGAGAAGGUUAUCGUGCGCCAGUGAUGUUGGCGGUAGUC [theeternabot_sameState_KL_FMN_A_22]

>  <apparent KD of K4 kissing-loop reporter [nM]>
181

$$$$

* * *

System: MS2 coat protein
Experiment: apparent KD of MS2 coat protein; designed switch direction (-1 OFF switch, 1 ON switch): 1; higher = weaker reporter binding
Conditions: Eterna round: R95; input ligand: microRNA oligo, concentration not stated
Here the recorded apparent KD of MS2 coat protein is given for each entry.
readoutType: apparent KD of MS2 coat protein

>  <recordSequence>
ACGCAGCUGGGUGAGGAUAUCGGUGGUACUACAUGAGGAUCACCCAUGUCCGAAGCUCGGACCUCCGAGAAGGCGCCCGGCUGCG [Soinraesar Omei Mod 3] (puzzle: Same State 2)

>  <readoutType>
apparent KD of MS2 coat protein

>  <result>
184 nM

$$$$
>  <recordSequence>
AGUCCAGCCUGAGCUGGACAAAAGCAUGUACAUGAGGAUCACCCAUGUUAUGUACAAGCUUUUUGCUCGUUUUAAUA [Zipper 49 - 15] (puzzle: Sensor for hsa-mir-208a)

>  <readoutType>
apparent KD of MS2 coat protein

>  <result>
13.1 nM

$$$$
>  <recordSequence>
GCAGAACAUGAGGAUCACCCAUGUCUCAAAUAUUGAGGAUAUGGACACGGUAUAUCCGAACCAGAAGGCAAACUGC [SS1 Teenbexe 19] (puzzle: Same State 1)

>  <readoutType>
apparent KD of MS2 coat protein

>  <result>
74.5 nM

$$$$

* * *

Test system: K4 kissing-loop RNA reporter;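 further: bound reporter read as fluorescence of individual clusters on recovered sequencing chips by microscopy, with normalized cluster intensities fitted with a binding model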
Assay: apparent KD of K4 kissing-loop reporter; higher = weaker reporter binding
Conditions: Eterna round: R107; input ligand: FMN 200 uM
readoutType: apparent KD of K4 kissing-loop reporter (nM)

>  <recordSequence>
CUUAAGGAGUGUCGUGCCGGACACUGGGAAGGAGCGCAAUUCUUUGCAGGUAGGUCGCCCAGUGAUGUUGGGUGGCGCUGUCGAA [Laatonbi]

>  <quantitativeReadout>
190

$$$$
>  <recordSequence>
AGACCACAAAGUGGUCAGUGUUCGCUGCAGCGAGGACCGGUACGGCCGCCACUCGCGAGUGAUGUUCGCGAGAGCAGCGAACACA [Omei KL Tryp A Exc A v6]

>  <quantitativeReadout>
90.9

$$$$
>  <recordSequence>
AAAUUGUUUAGAGGAUAUUCUUUAUUCGACAUAACCUUCUAUAAGGUGCAGUGAUGUUGCAAUAUAGGAGAAGGUUGAGUGAUAA [Exclusion FMN B Gf 15]

>  <quantitativeReadout>
135

$$$$
>  <recordSequence>
GGGUGGUAGGCGGCCGCCACUCUGAGCACCCACUGAGUGAUGUUCGUGGCGUAAGCCUGUUCAUAGAGGACCGGGUUUGUUGUUC [Exclusion Tryptophan B GF 16]

>  <quantitativeReadout>
507

$$$$
>  <recordSequence>
GUAUAAGUGGGCGAUACCAGCUGUCGGUAGUGAUGUUAUUCAGCAGUCAGGAAGUUCGCUAGCCCUUGGCAGCGCCAGUGGUGAC [theeternabot_exclusion_KL_Theo_B_19]

>  <quantitativeReadout>
383

$$$$
>  <recordSequence>
CUAUGGAAACAUAGGAAUCGGGAAACCGAUACCAGUAUGGAAACAUACCCUUGGCAGCGGAAUGAUUCAACGGAGUGAUGUUCCG [Theophylline A K4 20]

>  <quantitativeReadout>
395

$$$$
>  <recordSequence>
CCCUCACGAGUGAUGUUCGUAGGGUACAGUCAGGAUAUCAUGCGGUUGAGAAGGGACAGAGAGGGCGGCGGCGGGUUGCUCAUCG [Rabele]

>  <quantitativeReadout>
150

$$$$
>  <recordSequence>
UCCUGCAAUCUACCACGAAAGUGGAUGGAUACCAGAGUCGAAAGACUCCCUUGGCAGCCAGUGAUGUUGGAGCAGGUAAAAUAAA

>  <quantitativeReadout>
670

$$$$
>  <recordSequence>
GUAGACGUACCUUCAGUGAUGUUGAAGGAUACCAGAUGUUACCACAUCCCUUGGCAGCCUUGGGAUAACAGUGAGUCGGAAUAUG [Uslediti]

>  <quantitativeReadout>
176

$$$$
>  <recordSequence>
AAUUCAGCUAGUGAUGUUAGCGUAGAGUGCAAGGAUAUCCCUGUCAGGAGAAGGUGCGUAGAACGUUUGCCAUCAGAUUGUCCCA [theeternabot_exclusion_KL_FMN_A_48]

>  <quantitativeReadout>
176

$$$$
>  <recordSequence>
ACGUAGCAGGCGGCCGCCACUCCGCAUAUGGAUCUCGAGUGAUGUUUGAGGGUGCCCAUCACAGCGAGGACCGGGCCAAUUAAGC [theeternabot_sameState_KL_Trp_B_10]

>  <quantitativeReadout>
86.2

$$$$
>  <recordSequence>
GUGAAUGGCUGAGCAGCCGUGGUACGAGAUACCAGUGAUUUCGAUCACCCUUGGCAGCUCGGCGUGAGUGAUGUUCACGCUACAC [Theo A SS t12a]

>  <quantitativeReadout>
273

$$$$
>  <recordSequence>
AACGCAAGUUGUCUGGUAGACAUUUCAGAUACCAGACAUAGUGAUGUCCCUUGGCAGCUGAACAUCCAGUGAUGUUGGAUACGUU [Theo A SS t11a]

>  <quantitativeReadout>
444

$$$$
>  <recordSequence>
CUGAGCCUGACGCAAGUCAGGCUCUGCGAGCGAGGACCGGUACGGCCGCCACUCGGUGCAGUGAUGUUGCAUGGCCGCAAGGCCG [#2 Exclusion - Tryptophan A Attempt #21 (HarryS)]

>  <quantitativeReadout>
254

$$$$
>  <recordSequence>
UUCAGGUGUUCGGCCGCCACUCCAGUGAUGUUGGAGUGGCUUCACAAGGACCAGGACAAUGUAAGGAGGACCGGGAAUAUCGCAG [Leerat]

>  <quantitativeReadout>
143

$$$$
>  <recordSequence>
GCCUUAUAUCGAGCUACAGCUCGAUUUGGUCGAGGACCGGUACGGCCGCCACUCGAAUGAUAGUGAUGUUAUCAUUAUGGCCUAA [JR_ExcTryptoA_Sub022]

>  <quantitativeReadout>
185

$$$$
>  <recordSequence>
GCCUAGCAGGGAAGGAGCGCCAUAUAAUUAAAAGUUAAUUAAUGAGUGAUGUUCAAAUAAUGGCAGGUAGGUCGCCCUGCUAGGC [KL-SSArg B9]

>  <quantitativeReadout>
378

$$$$
>  <recordSequence>
CGCGCGCGUUGAGAGGUGCGCGCGAAUGAUACCAGUAUAUAAGAAUACCCUUGGCAGCAUAAGAAAGAUAUAGUGAUGUUGUAUA [SSTheophA.F]

>  <quantitativeReadout>
346

$$$$
>  <recordSequence>
AGUUCCUCUGUCGAUACCAGCUUCAGUUGGCGGCCAGUGAUGUUGGUAUCGCCGAUGCCAAGCCCUUGGCAGCGACAUGAGACCC [Lausso]

>  <quantitativeReadout>
188

$$$$
>  <recordSequence>
GCUCAGGAGUGAUGUUCCAAGUGAUGUUAACGAGGACCGGUACGGCCGCCACUCGAUACGGCCGGACCGUAGGAUAAACUAGAGC [Same State - Tryptophan A (Freestyle 9)]

>  <quantitativeReadout>
200

$$$$
>  <recordSequence>
GUCUCAAAAGAGGCAAGCACUCACGAGGACAAGGAUAUCAUCUCAAUGAGAAGGUGUCCUCGUCCCUAGUGAUGUUAGGGAGUGC [Omei KL FMN A SS E v2]

>  <quantitativeReadout>
211

$$$$
>  <recordSequence>
CCGAAGAACCAGUGAUGUUGGUUGACUAGACAGGAUAUGAGCAACAUCAGAAGGGUCUGGCUUCGGGAGUGGGCCGCGCUGACCU [Artilati]

>  <quantitativeReadout>
324

$$$$
>  <recordSequence>
GCCGUACGCAUGGAUACCAGCAACCCUGCCAUCCCAGUGAUGUUGGGAGGAACAUUCUCAUGCCCUUGGCAGCCAUGCGUACGGC

>  <quantitativeReadout>
534

$$$$
>  <recordSequence>
GCGGGCCAGACGGCCGCCACUCCGGGCAGUGAUGUUGCGAAAAUUCUACUAGAGUGAUGUUCUACGAGGACCGGGUCGGAACGCG [Exclusion Tryptophan B Gf 12]

>  <quantitativeReadout>
370

$$$$
